- system under test: mouse NR4A3 ligand-binding domain (Mus musculus)
- Sequence (Q9QZB6 395-624): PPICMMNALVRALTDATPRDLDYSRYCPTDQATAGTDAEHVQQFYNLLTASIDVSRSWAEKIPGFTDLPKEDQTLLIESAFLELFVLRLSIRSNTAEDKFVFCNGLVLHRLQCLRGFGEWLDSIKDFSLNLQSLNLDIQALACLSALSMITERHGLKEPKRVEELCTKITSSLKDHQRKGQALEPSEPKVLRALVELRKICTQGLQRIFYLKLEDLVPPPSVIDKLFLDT
pKd: −log10 of the molar value.
measured attribute: pKd

a: C[C@]12CCC(=O)C=C1CC[C@@H]1[C@@H]2[C@@H](O)C[C@@]2(C)[C@H]1CC[C@]2(O)[C@@H](O)CO [20α-dihydrocortisol]
b: CCCCC[C@H](O)/C=C/[C@H]1C=CC(=O)[C@@H]1C/C=C\CCCC(=O)O [PGA2]
Problem: Given the entries a and b , determine which has the lower reported pKd. Which one? Tell me its label. b
